system: DU-145; experiment: Antiproliferative activity against human DU-145 cells assessed as reduction in cell viability after 48 hrs by Ez-cytoX based microplate reader method; type: functional; conditions: DU-145, 48 h
property_measured: pIC50
Entry type: numeric. Quantity: pIC50, the -log10 of concentration in molar units.

The reported pIC50 of the compound Nc1ccc2c(c1)CCc1c(-c3ccccc3C(F)(F)F)cc(-c3ccc(O)cc3)nc1-2 was 5.81

* * *

test system: HCT-15; assay: Antiproliferative activity against human HCT-15 cells assessed as reduction in cell viability after 48 hrs by Ez-cytoX based microplate reader method; type: functional; conditions: HCT-15, 48 h
Attribute: pIC50
Hey, just a heads up that pIC50 is the negative log base 10 of the concentration in molar.

# smiles_notation, measured_on, pIC50
rows = [
    ("Nc1ccc2c(c1)CCc1c(-c3ccccc3C(F)(F)F)cc(-c3ccccc3O)nc1-2", "HCT-15", 5.91),
]

# pIC50 (compound: Nc1ccc2c(c1)CCc1c(-c3ccc(C(F)(F)F)cc3)cc(-c3cccc(O)c3)nc1-2 ) is 5.63

pIC50 reported for this compound Nc1ccc2c(c1)CCc1c(-c3ccccc3C(F)(F)F)cc(-c3ccc(O)cc3)nc1-2 : 5.70

Short answer for Nc1ccc2c(c1)CCc1c(-c3cccc(F)c3)cc(-c3ccccc3O)nc1-2 : pIC50 was 5.65

response.value for Nc1ccc2c(c1)CCc1c(-c3ccccc3)cc(-c3cccc(O)c3)nc1-2 (field: pIC50) = 5.48
